Target: Human immunodeficiency virus type 1 integrase (Human immunodeficiency virus 1, UniProt Q7ZJM1)
Sequence (Q7ZJM1 whole entry): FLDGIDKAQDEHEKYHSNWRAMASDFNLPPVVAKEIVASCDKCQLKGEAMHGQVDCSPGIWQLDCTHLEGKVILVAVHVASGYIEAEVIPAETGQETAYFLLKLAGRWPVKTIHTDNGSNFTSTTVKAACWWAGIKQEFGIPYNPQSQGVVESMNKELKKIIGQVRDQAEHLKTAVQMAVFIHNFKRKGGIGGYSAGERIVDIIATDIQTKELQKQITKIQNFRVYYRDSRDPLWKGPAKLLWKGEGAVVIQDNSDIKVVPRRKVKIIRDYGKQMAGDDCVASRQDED
Assay: Inhibition of recombinant full length HIV1 C-terminal His-tagged integrase multimerization with N-terminal FLAG-tagged integrase expressed in Escherichia coli BL21(DE3) cells after 2.5 hrs by HTRF assay
pEC50: −log10 of the molar value.

{"columns": ["compound", "pEC50"],
 "data": [
  ["Cn1c(C(OC(C)(C)C)C(=O)O)c(-c2ccc3c(c2)CCCO3)c2ccccc21 (stereo unspecified)", 4.79]
]}

###

The reader will find reported IC50 values listed item by item below.
Target: Human immunodeficiency virus type 1 integrase (Human immunodeficiency virus 1, UniProt Q7ZJM1)
Assay: Inhibition of recombinant full length C-terminal His-tagged HIV1 integrase expressed in Escherichia coli BL21(DE3) cells assessed as inhibition of recombinant C-terminal FLAG-tagged LEDGF/p75-induced integration of viral 32-mer blunt-ended U5 DNA into pBR322 DNA preincubated with enzyme for 30 mins followed by viral and target DNA addition and subsequent addition of LEDGF/p75 after 5 mins measured after 90 mins by HTRF assay
Format: cell-based

{"columns": ["compound", "IC50"],
 "data": [
  ["Cn1c(C(OC(C)(C)C)C(=O)O)c(Cc2ccccc2)c2ccccc21 (stereo not drawn)", "31.3 µM"],
  ["COC(C(=O)O)c1c(C)nc2ccc(Br)cc2c1-c1ccc(Cl)cc1 (stereo not drawn)", "1.3 µM"],
  ["Cn1c(CC(OC(C)(C)C)C(=O)O)c(-c2ccccc2)c2ccccc21 (stereo not drawn)", "> 100 µM"],
  ["COc1ccc(-c2c(C(OC(C)(C)C)C(=O)O)n(Cc3ccccc3)c3ccccc23)cc1 (stereo not drawn)", "59.1 µM"],
  ["Cn1c(C(OC(C)(C)C)C(=O)O)c(-c2ccccc2)c2ccccc21 (stereo not drawn)", "44.1 µM"],
  ["COc1ccc(-n2c(C(OC(C)(C)C)C(=O)O)c(C)c3ccccc32)cc1 (stereo not drawn)", "> 100 µM"],
  ["Cn1c(C(OC(C)(C)C)C(=O)O)c(-c2ccc3c(c2)CCCO3)c2ccccc21 (stereo not drawn)", "4.5 µM"],
  ["COc1ccc(-c2c(C(OC(C)(C)C)C(=O)O)n(C)c3ccccc23)cc1 (stereo not drawn)", "32 µM"]
]}
